Value source: the nanobody polyreactivity screen of Harvey et al. (2022)

Assay: yeast display, Sf9 membrane polyspecificity reagent, FACS + sequencing; frameworks hold sequencing errors
test-readout: polyreactivity (PSR sort gate)

A selection of reference data follows.
1) QVQLVETGGGLVQAGGSLRLICAASGRIFTWYAMGWYRQGPGKERELVATNSYNGGRTYYADSVKGRFTISRDNAKNTVYLQMNSLKPEDNAVYYCNTVPVGSVSHGLDSRFGYWGQGTQVTVSS: high polyreactivity
2) QVQLVESGGGVVQAGGSLRISCAASGSTFAANAMGWYRQAPGKERELVAAISTSGGRSYYADSVKGRFTISRDNAKNTLYLQMNSLKPEDSAGYYCAAYSRTSDRDFDYWGQGTQVTVSS: high polyreactivity
3) QVQLVESGGGLVQAGGSLRLSCAASGRTLSVNAMGWYRQAPGKERELVAAITWGGGSTYYADSVKGRFTISRDNAKNTVYLQMNSLKPEDTAVYYCNADPGWTELEYDYWGQGTQVTVSS: low polyreactivity
4) QVQLVESGGGLVQAGGSLRLSCASSGSIFYVYAMGWYRQAPGKERELVATIDWSGGSTYYADSVKGRFTISRDNAKNTVYLQMNSLKPEDTAVYYCAAYGLYGYRRRYRVSFTPYDYWGQGTQVNVSS: low polyreactivity

Supply reported polyreactivity (PSR sort gate) belonging to this sequence: QVQLVESGGGLVQAGGSLRLSCAASGSTFYVYAMGWYRQAPGNERELVAAITSGGSTNYADSVKGRFTISRDNAKNTVYLQMNSLKPEDTAVYYCAAQGRVWDSYGYEYVQEVTRDYWGQGTQVTVSS
low polyreactivity
